Multiple publications report IC50 for BTK (Homo sapiens); what follows is a combined list.

// solved cases for IC50 follow
C=CC(=O)N1CCC=C(c2ccc(C(N)=O)c3[nH]c4c(c23)CC2(CCCC2)CC4)C1 ... 10 to 100 nM
C=CC(=O)N1CC2CC1C(n1nc(-c3ccc(C(=O)Nc4ccccn4)cc3F)c3c(N)ncnc31)C2 (stereo not drawn) ... 1.6 nM

Asked: Given the entry C=CC(=O)Nc1cc(Nc2ncc3cccc(Cl)c3n2)ccc1N(C)CCN(C)C , report its measured IC50.
Given back: > 100 nM

---

Compiled record: IC50 values for BTK (Homo sapiens) across several sources.

CN(C(=O)/C=C/CN(C)C1CC1)c1cccc(-n2c(=O)n(-c3ccc(OCc4ccccc4)cc3)c3c(N)ncnc32)c1 ... < 100 nM
C=CC(=O)N1CC2(CC2)C[C@H]1c1nc(-c2cccc(C(=O)Nc3ccccn3)c2)c2c(N)nccn12 ... 18 nM
CC#CC(=O)N1CCC[C@H]1Cn1nc(-c2ccc(Oc3ccccc3)cc2)c2c(N)ncnc21 ... 3.14 nM

Asked: Need IC50, item COCCOc1ccc(Nc2cc(-n3ccnc3Nc3c(C)cccc3Cl)ncn2)cc1
Given back: 1860 nM

Asked: One more molecule: C=CC(=O)N1CCN(c2ccc(C(N)=O)c(-c3ccc(Oc4ccccc4F)cc3)n2)CC1
Given back: < 500 nM

Asked: Input O=C(CNc1cccc(-c2cccs2)c1)N[C@@H]1CCCN(c2ncnc3[nH]ccc23)C1
Given back: 100 to 999 nM

Asked: Let us now turn to C=CC(=O)Nc1cccc(Oc2nc(Nc3ccc(N4CC[C@@H](n5ccnc5)C4)cc3)nc3ccsc23)c1
Given back: 50 to 100 nM

Asked: Query CC#CC(=O)N1C[C@H]2[C@@H](C1c1nc(-c3ccc(C(=O)Nc4cc(C(F)(F)F)ccn4)cc3)c3c(N)nccn13)C2(C)C (stereo partly shown) next
Given back: 17 nM

Asked: Next record, please: Cn1ncc2cc(-c3cc(C(F)(F)F)cc4c(N)c(C(N)=O)nnc34)ccc21
Given back: 1580 nM

Asked: And the next one, Cn1cc(-c2cn3nccc3c(N3CCC(C)(CNC(=O)c4noc(C5(C)CC5)n4)C3)n2)cn1 (stereo not shown) ?
Given back: 1000 to 10000 nM

---

pIC50: −log10 of the molar value.
A compilation of published pIC50 results with BTK (Homo sapiens).
Sequence (Q06187 whole entry): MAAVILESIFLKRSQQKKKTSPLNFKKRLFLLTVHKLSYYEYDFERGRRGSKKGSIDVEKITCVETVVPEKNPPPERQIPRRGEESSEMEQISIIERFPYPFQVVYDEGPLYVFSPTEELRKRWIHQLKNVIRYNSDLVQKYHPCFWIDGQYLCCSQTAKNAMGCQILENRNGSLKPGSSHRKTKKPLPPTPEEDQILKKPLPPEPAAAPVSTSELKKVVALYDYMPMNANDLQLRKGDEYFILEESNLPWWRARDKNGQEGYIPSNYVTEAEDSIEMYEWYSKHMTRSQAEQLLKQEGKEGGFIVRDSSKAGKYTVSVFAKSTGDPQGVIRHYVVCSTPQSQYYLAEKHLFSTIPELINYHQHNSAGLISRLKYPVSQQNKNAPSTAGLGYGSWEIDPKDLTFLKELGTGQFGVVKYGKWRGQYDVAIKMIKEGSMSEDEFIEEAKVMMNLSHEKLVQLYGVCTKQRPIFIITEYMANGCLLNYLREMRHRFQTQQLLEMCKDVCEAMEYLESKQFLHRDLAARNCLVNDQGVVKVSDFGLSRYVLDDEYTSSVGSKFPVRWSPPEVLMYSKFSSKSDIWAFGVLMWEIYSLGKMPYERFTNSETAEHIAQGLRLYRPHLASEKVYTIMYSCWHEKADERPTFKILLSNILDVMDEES

Cn1cc(Nc2nccc(-c3ccc4c(c3)CCCC4NC(=O)c3cnc(C(C)(C)C)s3)n2)cn1 (stereo not shown) ... > 8.00
C=CC(=O)Nc1cccc(Oc2ncnc3[nH]c(-c4ccc(NC5CCN(C)CC5)cc4)cc23)c1 ... > 7.00

Asked: Quick one: pIC50 of O=C(CNc1cccc2cccnc12)NC1CCCN(c2ncnc3[nH]ccc23)C1 (stereo not shown) ?
Given back: 5.00 to 6.00

Asked: Also need Cc1cc(-c2ncnc3[nH]ncc23)ccc1CNC(=O)c1nc2c(s1)CCCC2 , thanks.
Given back: > 8.00

---

Published IC50 for UniProt:Q06187, assembled from different documents, is shown next.

Some compounds with recorded IC50:
O=C(CNc1cccc(-c2cn3ccccc3n2)c1)N[C@@H]1CCCN(c2ncnc3[nH]ccc23)C1 ... 0.1 to 0.999 µM
C=CC(=O)N1CC(Nc2cncc(-c3cnc(Oc4cccc(F)c4)nc3)n2)C1 ... 0.0193 µM
COc1ccccc1C(=O)NCc1ccc(-c2nc(C3CCC(O)CC3)n3ccnc(N)c23)cc1 (stereo not drawn) ... ≤ 0.01 µM
O=C(CNC(=O)c1ccccc1)NC1CCCN(c2ncnc3[nH]ccc23)C1 (stereo not drawn) ... 0.1 to 0.999 µM

Asked: Report IC50 for O=C(N[C@@H]1CCCN(c2ncnc3[nH]ccc23)C1)[C@H](Nc1cc(F)cc(C(F)(F)F)c1)C1CC1 please.
Given back: < 0.1 µM

Asked: And CC(C)Oc1cccc(NCC(=O)NC2CCCN(c3ncnc4[nH]ccc34)C2)c1 (stereo not drawn) ?
Given back: 1 to 10 µM

---

pIC50: −log10 of the molar value.
For reference, the following pIC50 results for BTK (Homo sapiens, UniProt Q06187) were taken from various sources.

Worked cases, pIC50 given:
C=CC(=O)Nc1cc(Nc2cc(Oc3ccc(Oc4ccccc4)cc3)ncn2)cc(C(=O)N2CCOCC2)c1 ... ≥ 8.00
C=CC(=O)N1CC[C@@H](Nc2nc(Nc3cnn(CCCOC)c3)nc3ccsc23)C1 ... ≥ 7.30
CCN(C)S(=O)(=O)c1ccccc1NCC(=O)N[C@@H]1CCCN(c2ncnc3[nH]ccc23)C1 ... > 7.00
O=C(c1cc(NS(=O)(=O)N2CCCCC2)ccc1F)c1c[nH]c2ncccc12 ... ≥ 5.00
C=CC(=O)N1CCC[C@@H](c2nn(-c3ccc(Oc4ccccc4)cc3)c3c(N)ncnc23)C1 ... > 9.00
N#CCC(=O)N1CC(n2cc(C(N)=O)c(-c3ccc(Oc4ccccc4)cc3)n2)C1 ... ≤ 6.00
CCC[C@@H](Nc1cccc2c1OC(F)(F)O2)C(=O)N[C@@H]1CCCN(c2ncnc3[nH]ncc23)C1 ... 6.00 to 7.00

Please look at the following compound next.
Asked: So what does the record say about pIC50 for C=CC(=O)N1CCC[C@@H](n2nc(-c3ccc(Oc4ccccc4)cc3)c(C(N)=O)c2NC)C1 ?
Given back: > 7.00

---

Compiled from multiple publications: IC50 readings for BTK (Homo sapiens).

Solved entries (count: 7):
C#CC(=O)N1CC2CC1C(n1nc(-c3ccc(Oc4ccccc4)cc3)c3c(N)ncnc31)C2 (centres unmarked) ... 0.8 nM
Cc1cc(-c2ccnc(NCC3CCS(=O)(=O)CC3)n2)ccc1CNC(=O)c1cnc(C(C)(C)C)s1 ... 100 to 999 nM
Cn1cc(-c2cc3c(-c4ccc5c(c4)CCCCC5NC(=O)N4CCC(C(C)(C)C)C4)ncnc3[nH]2)cn1 (centres unmarked) ... < 10 nM
Cn1cc(-c2cn3nccc3c(-c3ccc(CNC(=O)c4noc(C5(CF)CC5)n4)cc3)n2)cn1 ... < 1 nM
Cn1cc(-c2cn3nccc3c(-c3ccc(CNC(=O)c4noc(C(C)(C)C)n4)c(F)c3F)n2)cn1 ... < 1 nM
C=CC(=O)N1C2C[C@@H](C1c1nc(-c3ccc(C(=O)Nc4cc(C(F)(F)F)ccn4)cc3)c3c(N)nccn13)N(C(C)C)C2 (some centres unmarked) ... 2.3 nM
CCCS(=O)(=O)Nc1ccc(F)c(C(=O)c2c[nH]c3ncc(-c4cnn(Cc5ccccc5)c4)cc23)c1F ... ≤ 10000 nM

Now turn to the next compound.
Asked: Can you look up the measured IC50 of CC#CC(=O)N1CCC[C@H]1Cn1nc(-c2ccc(Oc3ccccc3)cc2F)c2cncnc21 for me?
Given back: < 100 nM

---

Note to self: these compounds have IC50 reported for BTK (Homo sapiens) in various publications.

Recorded results for 4 compounds are shown here.
O=C(CNc1ccccc1F)N1CCC[C@H](Nc2ncnc3[nH]ncc23)C1 ... > 10000 nM
C=CC(=O)N[C@H]1CC[C@@H](Nc2nc(Nc3ccc(C(=O)N4CCN(C)CC4)cc3)nc3ccsc23)CC1 ... ≤ 50 nM
O=C(CNc1c(F)ccc(F)c1F)N[C@@H]1CCCN(c2ncnc3[nH]ccc23)C1 ... 100 to 999 nM
C=CC(=O)N1CC[C@@H](n2cc(C(N)=O)c(-c3ccc(Oc4ccccc4)cc3)n2)C1 ... < 500 nM

Asked: Could you tell me which IC50 is on file for C=CC(=O)Nc1cccc(Oc2nc(Nc3ccc(CN4CCC(O)CC4)cc3)nc3ccsc23)c1 ?
Given back: ≤ 50 nM

Asked: Try the compound C=CC(=O)N1CC(CNc2nc(Nc3cnn(C4CCC4)c3)nc3ccsc23)C1
Given back: ≤ 50 nM

Asked: And then COc1cccc(C(=O)c2c[nH]c3ncc(-c4cccc(NC(C)=O)c4)cc23)c1F , what is it?
Given back: ≤ 10000 nM

Asked: Next: C=CS(=O)(=O)N1CCCC(n2nc(-c3ccc(Oc4ccccc4)cc3)c(C(N)=O)c2N)C1 (stereo not drawn)
Given back: < 100 nM

Asked: Quick one: C=CC(=O)NCc1cccc(-c2cc3nccc(Oc4ccc(Oc5ccccc5)cc4)c3o2)c1
Given back: < 300 nM

---

Here is a set of compounds with reported IC50 for BTK (Homo sapiens, UniProt Q06187), compiled from the literature.

Examples from the recorded data:
C=CC(=O)N1CCC(c2nc(-c3ccc(Oc4ccccc4)cc3)c(C(N)=O)o2)CC1 ... < 0.5 µM
Cc1cc(-c2cc(Nc3cc4n(n3)CC(=O)N(C)C4)ncn2)ccc1CNC(=O)N1CC(OC(C)(C)C)C1 ... < 0.01 µM
C=CC(=O)N1CC2CC1C(n1nc(-c3cccc(C(=O)Nc4ccccc4)c3)c3c(N)ncnc31)C2 (stereo not shown) ... 0.063 µM
COc1cc(-c2cc3nccc(Nc4ccc5[nH]ccc5c4C)c3o2)cc(OC)c1OC ... 0.3 to 3 µM
Cc1cc(Nc2nn(-c3cccc(-n4ncc5cc(C(C)(C)C)ccc5c4=O)c3CO)cc2C(N)=O)nn1C ... 0.00051 µM

Asked: What value of IC50 on BTK (Homo sapiens, UniProt Q06187) does C=CC(=O)N1CCC(c2ncc(C(N)=O)c(-c3ccc(Oc4ccccc4)cc3)n2)C1 (stereo not shown) have?
Given back: < 0.5 µM

Asked: // query: CCNC(=O)Nc1cc(-c2cccc(NC(=O)c3ccc(C(C)(C)C)cc3)c2C)nn2ccnc12
Given back: 0.022 µM

Asked: Follow-up entry: CC#CC(=O)N(C)[C@H]1CCCN(c2c(F)cc(C(N)=O)c3[nH]c4c(c23)CCC4)C1
Given back: < 0.01 µM

Asked: Another compound to check: N#Cc1ccnc2[nH]cc(C(=O)c3c(F)ccc(NS(=O)(=O)c4ccc(C(F)(F)F)cc4)c3F)c12
Given back: > 10 µM

Asked: Can you handle C=CC(=O)N1CCC2CCN(c3c(F)cc(C(N)=O)c4[nH]c(C)c(Cl)c34)CC21 (racemic) next?
Given back: 0.01 to 0.1 µM
